- procedureDetails: Cytotoxicity against mouse N2a695 cells assessed as reduction in cell viability at 10 uM incubated for 24 hrs by MTT assay
- Format: cell-based
measureName: Activity

These recorded examples may help you get a feel for the data.
| chemicalSmiles | reading |
| --- | --- |
| CN1CCN(c2ncc3cc(-c4c(Cl)cc(NC(=O)C(C)(C)C)cc4Cl)c(=O)n(C)c3n2)CC1 | Non-Toxic |
| Cn1c(=O)c(-c2c(Cl)cccc2Cl)cc2cnc(N3CCNCC3)nc21 | Non-Toxic |
| CN1CCC(N2CCN(c3ncc4cc(-c5c(Cl)cccc5Cl)c(=O)n(C)c4n3)CC2)CC1 | Non-Toxic |
| Cn1c(=O)c(-c2c(Cl)cccc2Cl)cc2cnc(N3CCN(Cc4ccccc4)CC3)nc21 | Toxic |

[ask] I'd like to know its Activity. The compound in question is Cn1c(=O)c(-c2c(Cl)cc(NC(=O)OC(C)(C)C)cc2Cl)cc2cnc(N3CCN(c4ccncc4)CC3)nc21
[reply] Non-Toxic
